Numbers sourced from PubChem BioAssay (NCI).

Tested on: OVCAR-5 ovarian
assay.procedure: NCI tumour cell line growth inhibition, 48 h
endpoint.label: TGI

| compound | endpoint.label | result |
| --- | --- | --- |
| COc1ccc(CN2C(=O)C(Cc3cc(OC)c(OC)c(C)c3OC)NC(=O)/C2=C/c2cc(OC)c(OC)c(C)c2OC)cc1 (stereo not drawn) | TGI | > 100 µM |
| COc1ccc(/C(CCl)=C(\Nc2ccccc2)c2ccc(OC)c(OC)c2)cc1OC | TGI | > 100 µM |

// next entry
Lab book: TGI of `COc1ccc(C[n+]2c3ccccc3n3c4ccc(N)cc4ccc32)c(OC)c1OC` noted as 78.5 µM

###

Tested on: SR leukemia
assay.procedure: NCI tumour cell line growth inhibition, 48 h
Task for the reader: assign each of the following compounds its reported TGI.

Look over these answered cases.
| compound | TGI |
| --- | --- |
| COc1cc2ccccc2c2cc([N+](=O)[O-])oc12 | 1.92 µM |
| CC(=O)OCCOCNC(=S)N/N=C/c1ccc2ccccc2n1 | > 100 µM |
| O=c1[nH][nH]c(=O)[nH]1 | > 100 µM |

Respectfully, I request TGI for each entry included below.
1. CSc1c(C#N)c(O)n(-c2ccc(C)cc2)c(=O)c1C#N
2. C#CCSc1nc(N)c2ncn(C3OC(CO)C(O)C3O)c2n1 (stereo not given)
3. CCC(CC)C(=O)OC[n+]1ccc(-c2c(COC(=O)NC(C)C)c(COC(=O)NC(C)C)c3n2CCC3)cc1
4. CO[C@H]1O[C@@H]2CO[C@@H](c3ccccc3)O[C@H]2[C@@H]2CC=CCC[C@]12O

A)
1. > 100 µM
2. > 100 µM
3. > 100 µM
4. > 100 µM

Report TGI for every entry below.
1. COc1ccc(Cl)cc1Nc1nc(C(F)(F)F)ccc1C(=O)N/N=C/c1ccc([N+](=O)[O-])cc1
2. CC1=C(C(=O)N[C@@H](Cc2ccccc2)C(=O)O)N2C(=O)[C@@H](NC(=O)[C@@H](N)CC(C)C)[C@H]2SC1
3. N#CCCN(CCC#N)C(=O)c1cccc(C(=O)N(CCC#N)CCC#N)c1

A)
1. 4.95 µM
2. > 100 µM
3. > 68.4 µM

###

Test system: DU-145 prostate
assay.procedure: NCI tumour cell line growth inhibition, 48 h
endpoint.label: GI50

Some molecules with recorded GI50:
| structure.notation | result |
| --- | --- |
| O=C(/C=C1\C(=O)N(Cc2ccc([N+](=O)[O-])cc2)c2ccccc21)c1ccc(OCCN2CCCCC2)cc1 | 1.56 µM |
| Cc1oc2nc[nH]c(=O)c2c1C(=O)/C=C/c1ccc(Cl)cc1 | 2.82 µM |
| CN1CCN(CCCOc2cccc3nc(Nc4ccc(Cl)c(F)c4)ccc23)CC1 | 1.75 µM |
| CN(CCC#N)c1ccc(/C=C(\C#N)c2cccc(C(F)(F)F)c2)cc1 | 11.3 µM |
| COc1cc(-c2n/c(=C\c3c(O)[nH]c4ccc(Cl)cc34)cc3c2=Nc2ccccc2-3)cc(OC)c1OC | 0.655 µM |

Let us move to another entry and its GI50.
Sample `CCN(CC)C(=O)CC1=C(C)/C(=C/c2[nH]c(-c3ccc[nH]3)cc2OC)N=C1C` ; GI50 observed: 0.546 µM

###

System: UACC-62 melanoma
assay.procedure: NCI tumour cell line growth inhibition, 48 h; in the data active = GI50 below about 0.43 µM; inactive = the rest
Lab note: assign the record to one of y for active, n for inactive

Worked examples follow.
| compound | qualitative.label |
| --- | --- |
| COc1ccc2c(c1)[C@]1(C[C@H]1c1ccc3c(/C=C/c4ccc(CN5C[C@@H](C)O[C@@H](C)C5)cc4)n[nH]c3c1)C(=O)N2 | n |
| CC(=O)[CH-]C(=O)c1ccccc1.CC(=O)[CH-]C(=O)c1ccccc1.COc1cccc([O-])c1[O-].[Ti+4] | n |

Q) Which outcome did this test record for the compound `Cc1onc(-c2c(F)cccc2Cl)c1-c1ncc(-c2ccc(Cl)cc2)o1` ?
A) n

Q) Check the results log: what was the call for `COc1cc(-c2n/c(=C\c3c(O)[nH]c4ccc(Cl)cc34)cc3c2=Nc2ccccc2-3)cc(OC)c1OC` ?
A) n

Q) Hello, I am checking results. What call was entered for COC1C(O)C(C)OC(OC2C(Oc3cccc4c(O)c5c(=O)oc6ccc(C)c7c(=O)oc(c34)c5c67)OC(C)C3O[C@H](c4ccccc4)OC32)C1O (stereo not given in full) ?
A) y

Q) Please state the recorded outcome for this compound: `N#CC(C#N)=Cc1c(-c2ccccc2)[nH]c2ccccc12`
A) n

Q) Hey, what did the test say about `Cc1oc2nc[nH]c(=O)c2c1C(=O)/C=C/c1ccc(Cl)cc1` ?
A) n

Q) Dear all, I need the recorded test outcome for `C=CCn1c(=O)c2cnc(Nc3ccc(N4CCN(C)CC4)cc3)nc2n1-c1ccc2c(n1)[C@@](O)(CC)CC2` , thank you.
A) n

Q) Recorded call for `O=C(/C=C1\C(=O)N(Cc2ccc([N+](=O)[O-])cc2)c2ccccc21)c1ccc(OCCN2CCCCC2)cc1` ?
A) n

Q) Hello, I am checking results. What call was entered for `COc1ccc(-c2nn(-c3ccc(NC(=O)c4ccc(Cl)c(C(F)(F)F)c4)cc3)cc2-c2ccncc2)cc1Cl` ?
A) n

Q) Entry `CCCCN(CCCC)c1ccc(C(=N)c2ccc(N(C)C)cc2)cc1` : call = ?
A) n

###

Tested on: M14 melanoma
assay.procedure: NCI tumour cell line growth inhibition, 48 h
endpoint.label: GI50

Previously resolved entries follow.
| molecule | GI50 |
| --- | --- |
| O=C(Cn1c(=O)c(-c2ccccc2)nc2ccccc21)c1ccc(Cl)cc1 | > 100 µM |
| CC[C@@]1(OC(=O)CN)C(=O)OCc2c1cc1n(c2=O)Cc2cc3cc4c(cc3nc2-1)OCO4 | < 0.01 µM |
| CC(=O)[CH-]C(=O)c1ccccc1.CC(=O)[CH-]C(=O)c1ccccc1.COc1cccc([O-])c1[O-].[Ti+4] | 64.9 µM |

I need GI50 for every entry listed below, if you could help.
1. CCOC(=O)C1=C(C)NC2SC(=O)/C(=C\c3ccccc3Cl)N2C1c1ccccc1 (stereo not given)
2. CN(C)c1ccc(-c2ccc(-c3ccc(C(=N)N)c(F)c3)s2)cc1

A)
1. > 100 µM
2. 1.74 µM

###

System: SR leukemia
assay.procedure: NCI tumour cell line growth inhibition, 48 h; in the data active = GI50 below about 0.43 µM; inactive = the rest
Outcomes you can answer with include only these: T (active), F (inactive)

Example results:
| structure.notation | qualitative.label |
| --- | --- |
| Cc1oc2nc[nH]c(=O)c2c1C(=O)/C=C/c1ccc(Cl)cc1 | F |
| O=C(/C=C/c1ccccc1)c1c[nH]c2ccccc2c1=O | F |
| Cc1csc(/C=N/NC(=O)c2nnn(-c3ccnc4c(C(F)(F)F)cccc34)c2C)c1 | F |
| CC1=CC[C@@H]2C(C)(C)C(=O)CC[C@@]2(C)[C@@H]1COc1ccc2ccc(=O)oc2c1 | F |
| COc1ccc(-c2nn(-c3ccc(NC(=O)c4ccc(Cl)c(C(F)(F)F)c4)cc3)cc2-c2ccncc2)cc1Cl | T |
| O=S(=O)(Nc1cc(Br)c(O)c2ccccc12)c1ccc(F)cc1 | F |

Turning now to a further compound:
Q) Returns: the outcome recorded for `C=C1C(=O)O[C@H]2[C@H]1CC/C(Cn1cc(CNCCc3c[nH]c4ccc(Cl)cc34)nn1)=C\CC[C@@]1(C)O[C@@H]21` in this assay.
A) F

###

Test system: RXF 393 renal
assay.procedure: NCI tumour cell line growth inhibition, 48 h
Can you tell me TGI for the items I'm about to list?

| compound | endpoint.label | result |
| --- | --- | --- |
| COc1ccc(-c2cc(-c3ccccc3)n(C3OCC(OC(C)=O)C(OC(C)=O)C3OC(C)=O)c(=S)c2C#N)cc1 (centres undefined) | TGI | > 100 µM |

Could you tell me TGI for each of these compounds? They are listed below.
1. Cc1onc(-c2c(F)cccc2Cl)c1-c1ncc(-c2ccc(Cl)cc2)o1
2. CCCCC1Cc2ccccc2-c2n1c1ccccc1[n+]2C (centres undefined)
3. COc1ccc(CN2C(=O)C(Cc3cc(OC)c(OC)c(C)c3OC)NC(=O)/C2=C/c2cc(OC)c(OC)c(C)c2OC)cc1 (centres undefined)
4. CCOC(=O)[C@@H]1C[C@H]1c1ccc(O)c(O)c1
5. COc1cccc(/C(CC(O)(C(F)(F)F)C(F)(F)F)=N\N(C)C)c1
6. CO[C@H]1[C@@H](O)[C@@H](C)O[C@@H](O[C@H]2CC[C@@]3(C)[C@H](CC[C@@H]4[C@@H]3CC[C@]3(C)[C@@H](C5=CC(=O)OC5)CC[C@]43O)C2)[C@@H]1O
7. CC(NC(=O)C(OC(=O)C(C)NC(=O)OC(C)(C)C)C(C)C)C(=O)OC(C(=O)O)C(C)C (centres undefined)

A)
1: 90.7 µM; 2: > 100 µM; 3: 71.2 µM; 4: 87.4 µM; 5: > 100 µM; 6: 0.00617 µM; 7: > 100 µM

# batch size: 3; output TGI per entry
1. COc1cc(-c2n/c(=C\c3c(O)[nH]c4ccc(Cl)cc34)cc3c2=Nc2ccccc2-3)cc(OC)c1OC
2. CC(C)(C)N/N=C(\Cc1occc(=O)c1O)C(=O)Nc1ccc([N+](=O)[O-])cc1[N+](=O)[O-]
3. COC(=O)CCC1(C)C2CCC1(C)/C(=N/O)C2 (centres undefined)

A)
["3.33 µM", "> 100 µM", "> 100 µM"]

Give me TGI for each of these compounds, listed below.
1. O=C(O)C1CCc2nnc(-c3ccccc3)n21 (centres undefined)
2. [N-]=[N+]=Nc1ccc(NCCCCCC(=O)ON2C(=O)CCC2=O)c([N+](=O)[O-])c1

A)
1: > 100 µM; 2: > 100 µM

Batch lookup, TGI per entry.
1. CC1CC(C)[C@H](O)C([C@H](O)CC2CC(=O)N(C)C(=O)C2)C1 (some centres undefined)
2. CC1=C(C(=O)N[C@@H](Cc2ccccc2)C(=O)O)N2C(=O)[C@@H](NC(=O)[C@@H](N)CC(C)C)[C@H]2SC1
3. CCC(CS(=O)(=O)O)[N+](=O)[O-] (centres undefined)

A)
1. > 100 µM
2. > 100 µM
3. > 100 µM
